Every entry's value here was drawn from patent US20230272055A1.

# Lookup of reported IC50, inhibition of pSTAT5 keyed by entry
# testTarget: T1, human Type 1 mutCALR on Ba/F3 cells expressing MPL and Type 1 mutCALR (human)
# T1 chain: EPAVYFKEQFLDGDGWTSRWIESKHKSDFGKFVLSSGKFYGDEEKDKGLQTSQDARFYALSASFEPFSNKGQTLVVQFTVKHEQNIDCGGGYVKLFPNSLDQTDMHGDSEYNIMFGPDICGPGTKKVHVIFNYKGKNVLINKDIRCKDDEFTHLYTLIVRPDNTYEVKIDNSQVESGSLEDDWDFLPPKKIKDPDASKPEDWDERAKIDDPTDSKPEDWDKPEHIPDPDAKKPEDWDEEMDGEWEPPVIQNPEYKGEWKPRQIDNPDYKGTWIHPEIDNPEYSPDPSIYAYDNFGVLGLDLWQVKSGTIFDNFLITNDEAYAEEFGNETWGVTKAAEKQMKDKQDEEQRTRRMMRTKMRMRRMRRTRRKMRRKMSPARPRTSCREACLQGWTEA
# assayNotes: cell-based or functional assay
The figure you give is taken to be in µg/mL; do not add the unit.

Examples with answers:
1) anti-mutCALR antibody clone 24 (antibody, human IgG1, lambda, V domains shown, human IgG1) VH: EVQLVQSGAEVKKPGASVKVSCKVSGYTLTELSMQWVRQAPGKGLEWMGGFDPDDGETMYAEKLQGRLTVTEDTSTDTVYMELRSLTSEDTALYFCATSPGYDFFDYWGQGTLVTVSS VL: SYVLTQPPSVSVAPGKTARITCGGNNIGSKSVHWYQQKPGQAPVLVVYDDSDRPSGIPERFSGSNSGNTATLTINRVEAGDEADYYCQVWDSSNDLLIFGGGTKLTVLG : 0.031
2) anti-mutCALR antibody clone 4 (antibody, human IgG1, lambda, V domains shown, human IgG1) VH: EVQLVQSGAEVKKPGASVKVSCKVSGYTLTELSMQWVRQAPGKGLEWMGGFDPDDGETMYAEKFQGRLTVTEDTSTDTVYMELRSLTSEDTALYFCATSPGYDFFDYWGQGTLVTVSS VL: SYVLTQPPSVSVAPGQTARITCGGNNIGSKSVHWYQQKPGQAPVLVVYDDSDRPSGIPERFSGSNSGNTATLTINRVEAGDEADYYCQVWDSSNDLLIFGGGTKLTVLG : 0.04
3) anti-mutCALR antibody clone 48 (antibody, human IgG1, lambda, V domains shown, human IgG1) VH: EVQLVQSGAEVKKPGSSVKVSCKASGGTFSSYAISWVRQAPGQGLEWMGGIIPIFGTANYAQKFQGRVTITADESTSTAYMELSSLRSEDTAVYYCASSPLRGSGWYWHYYYGMDVWGQGTTVTVSS VL: SYVLTQPPSVSVAPGKTARITCGGNNIGSKSVHWYQQKPGQAPVLVIYQDRKRPSGIPERFSGSNSGNTATLTISGTQAMDEADYYCQAWDSSTAVFGGGTKLTVLG : 2.6
4) anti-mutCALR antibody clone 45 (antibody, human IgG1, lambda, V domains shown, human IgG1) VH: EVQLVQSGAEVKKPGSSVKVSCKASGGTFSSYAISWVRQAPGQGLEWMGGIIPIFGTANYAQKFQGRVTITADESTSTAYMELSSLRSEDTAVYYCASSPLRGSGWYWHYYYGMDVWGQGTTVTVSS VL: SYVLTQPLSVSVAPGQTARITCGGNNIGRKSVHWYQQKPGQAPVLVIYRDSNRPSGIPERFSGSNSGNTATLTISRAQAGDEADYYCQVWDSSTVVFGGGTKLTVLG : 13
5) anti-mutCALR antibody clone 18 (antibody, human IgG1, lambda, V domains shown, human IgG1) VH: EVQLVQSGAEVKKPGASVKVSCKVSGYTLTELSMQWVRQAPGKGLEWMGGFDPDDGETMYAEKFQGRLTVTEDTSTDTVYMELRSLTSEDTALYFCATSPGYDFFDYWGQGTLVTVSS VL: SYVLTQPPSVSVAPGKTARITCGGNNIGSKSVHWYQQKPGQAPVLVVYDDSDRPLGIPERFSGSNSGNTATLTINRVEAGDEADYYCQVWDSSNDLLIFGGGTKLTVLG : 0.036
6) anti-mutCALR antibody clone 36 (antibody, human IgG1, lambda, V domains shown, human IgG1) VH: QVQLVQSGAEVKKPGATVKISCKVSGYSFTDYFIHWVQQAPGKGLAWVGLVDPEDGETIYAEKFQGRVTITADTSTDTAYMELSSLRSEDTAVYYCATPGGILTDPDAFDIWGQGTMVTVSS VL: QSALTQPRSVSGSPGQSVTISCAGTGSDVGGYNYVSWYQHHPGKAPKLMIYDVNKRPSGVPDRFSGSKSGNTASLTISGLQAEDEADYYCSSYTSSSTFYVFGTGTKVTVLG : 0.092
7) anti-mutCALR antibody clone 40 (antibody, human IgG1, lambda, V domains shown, human IgG1) VH: EVQLVQSGAEVKKPGASVKVSCKVSGYTLTESSMHWVRQAPGKGLEWMGLVDPEDGETIYAQKFQGRVTMTEDTSTDTAYMELSSLRSEDTAVYYCAREEWSGDGDDAFDIWGQGTMVTVSS VL: QSVLTQPPSVSAAPGQKVTISCSGSSSNIGSYSVSWYQQLPGTAPKLLIYDNNKRPSGIPDRFSGSNSGTSATLGITGLQTGDEADYYCGTWDSSLSAWVFGGGTKLTVLG : 0.742
8) anti-mutCALR antibody clone 10 (antibody, human IgG1, lambda, V domains shown, human IgG1) VH: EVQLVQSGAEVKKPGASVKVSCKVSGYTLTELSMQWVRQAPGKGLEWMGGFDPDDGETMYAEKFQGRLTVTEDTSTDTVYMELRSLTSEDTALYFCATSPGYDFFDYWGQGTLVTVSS VL: SYELTQPPSVSVAPGQTARIPCGGNNIGSEGVHWYQQKPGQAPVLVVYDDSDRPSGIPERFSGSNSGNTATLTISRVEAGDEADYYCQVWDSSNDLLIFGGGTKLTVLG : 0.055
9) anti-mutCALR antibody clone 28 (antibody, human IgG1, lambda, V domains shown, human IgG1) VH: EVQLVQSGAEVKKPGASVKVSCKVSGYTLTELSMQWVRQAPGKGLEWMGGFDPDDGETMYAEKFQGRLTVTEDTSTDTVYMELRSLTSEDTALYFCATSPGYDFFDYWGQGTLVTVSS VL: SYELTQPPSVSVAPGQTARITCGGNNIGSKSVHWYQQKPGQAPVLVVYDDSDRPSGIPERFSGSNSGNTATLTISRVEAGDEADYYCQVWDADSDQLIFGGGTKLTVLG : 0.193
10) anti-mutCALR antibody clone 7 (antibody, human IgG1, lambda, V domains shown, human IgG1) VH: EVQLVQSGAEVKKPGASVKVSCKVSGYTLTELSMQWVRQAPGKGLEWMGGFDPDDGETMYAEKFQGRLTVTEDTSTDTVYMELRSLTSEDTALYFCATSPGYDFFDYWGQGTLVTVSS VL: SYVLTQPPSVSVAPGQTASITCVGTNFGSKNVHWYQQRPGQAPVLVVYDDSDRPSGIPERFSGSNSGNTATLTINRVEAGDEADYYCQVWDSSNDLLIFGGGTKLTVLG : 0.049

Would you kindly look at the next entry?
State its IC50, inhibition of pSTAT5: anti-mutCALR antibody clone 12 (antibody, human IgG1, lambda, V domains shown, human IgG1) VH: EVQLVQSGAEVKKPGASVKVSCKVSGYTLTELSMQWVRQAPGKGLEWMGGFDPDGGETMYAEKFQGRLTVTEDTSTDTVYMELRSLTSEDTALYFCATSPGYDFFDYWGQGTLVTVSS VL: SYVLTQPPSVSVAPGQTARVSCGGNNIGSKSVNWYRQKPGQAPVLVIYDDSDRPSGIPERFSGSNSGNTATLTINRVEAGDEADYYCQVWDSSNDLLIFGGGTKLTVLG 0.061
